// data source = ChEMBL document CHEMBL1133879

biological target: Endothelin receptor type B (Homo sapiens); experiment: Displacement of [125I]endothelin from CHO cell membrane expressing human Endothelin B receptor; assay type: cell membranes; set-up: concentration or dose not given beside the values; settings: concentration not given here
quantity-measured: inhibition (%)
Numbers only, in %.

Would you please look over these solved cases?
O=C(Nc1ccc(F)cc1)c1ccc(Cl)[n+]([O-])c1 : 14
O=C(Nc1ccc(F)cc1)c1ccc(S(=O)(=O)Cc2ccccc2)[n+]([O-])c1 : 8
CS(=O)(=O)c1ccc(C(=O)Nc2ccc(F)cc2)c[n+]1[O-] : 8
O=C(Nc1ccc(F)cc1)c1ccc(S(=O)(=O)C2CCCC2)[n+]([O-])c1 : -2

Find the recorded inhibition belonging to `CCS(=O)(=O)c1ccc(C(=O)Nc2ccc(F)cc2)c[n+]1[O-]` and report it.
15

----------
biological target: Gastrin/cholecystokinin type B receptor (Homo sapiens); assay: Displacement of [3H]CCK-8 from NIH3T3 (mouse embryo cell membrane ) expressing human cholecystokinin CCKB receptor; format: cell membranes; set-up: concentration or dose not given beside the values; conditions: concentration not given here
Label MET for high-side inhibition (at or above 10%) and NOT MET for low-side inhibition (below it).

As a guide, the following entries are already answered.
O=C(Nc1ccc(F)cc1)c1ccc(S(=O)(=O)Cc2ccccc2)[n+]([O-])c1 : MET
CS(=O)(=O)c1ccc(C(=O)Nc2ccc(F)cc2)c[n+]1[O-] : MET
CCS(=O)(=O)c1ccc(C(=O)Nc2ccc(F)cc2)c[n+]1[O-] : MET
O=C(Nc1ccc(F)cc1)c1ccc(S(=O)(=O)C2CCCC2)[n+]([O-])c1 : NOT MET

Item `O=C(Nc1ccc(F)cc1)c1ccc(Cl)[n+]([O-])c1` with inhibition of 10% or above?
MET

----------
biological target: C-X-C chemokine receptor type 2 (Homo sapiens); assay: Compound binding was evaluated using an SPA assay with recombinant human [125I]IL-8 and membranes prepared from Sf9 cells expressing human C-X-C chemokine receptor type 2; format: cell membranes
quantity-measured: IC50 (nM)
Numbers only, in nM.

What IC50 appears in the records for this molecule with C-X-C chemokine receptor type 2 (Homo sapiens)? `CCN(CC)CCCCNc1nc2cc(Cl)c(Cl)cc2nc1-c1ccc(-c2cccs2)s1`
110

----------
species: Homo sapiens; assay: Functional selectivity was assessed in a neutrophil chemotaxis assay using N-formyl-methionyl-leucyl-phenylalanine (FMLP); format: organism-based
Can you tell me pIC50 for the items I'm about to list?
One number for each entry, as −log10 of the molar value.

Would you please look over these solved cases?
O=C(Nc1ccc(F)cc1)c1ccc(S(=O)(=O)Cc2ccccc2)[n+]([O-])c1 : 4.89
CS(=O)(=O)c1ccc(C(=O)Nc2ccc(F)cc2)c[n+]1[O-] : 5.02

Find the recorded pIC50 belonging to `CCS(=O)(=O)c1ccc(C(=O)Nc2ccc(F)cc2)c[n+]1[O-]` and report it.
4.88

----------
molecular target: Neuropeptide Y receptor type 1 (Homo sapiens) (UniProt P25929); experiment: Displacement of [125I]-peptide YY (PYY) from SK-N-MC (human neuroblastoma) cell membrane expressing human Neuropeptide Y receptor type 1; parameters: concentration or dose not given beside the values; conditions: concentration not given here
Sequence (P25929 whole entry): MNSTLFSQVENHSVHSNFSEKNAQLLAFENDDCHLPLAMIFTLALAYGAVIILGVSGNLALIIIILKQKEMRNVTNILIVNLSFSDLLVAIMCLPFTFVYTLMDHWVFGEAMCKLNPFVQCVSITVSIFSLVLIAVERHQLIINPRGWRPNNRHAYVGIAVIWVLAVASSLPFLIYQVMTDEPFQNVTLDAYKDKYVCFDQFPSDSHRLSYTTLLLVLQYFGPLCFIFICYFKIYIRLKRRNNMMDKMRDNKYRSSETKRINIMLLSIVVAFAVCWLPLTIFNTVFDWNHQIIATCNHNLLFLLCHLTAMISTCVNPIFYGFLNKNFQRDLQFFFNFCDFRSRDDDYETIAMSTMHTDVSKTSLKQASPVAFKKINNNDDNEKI
Label yes for high-side inhibition (at or above 30%) and no for low-side inhibition (below it).

As a guide, the following entries are already answered.
O=C(Nc1ccc(F)cc1)c1ccc(S(=O)(=O)Cc2ccccc2)[n+]([O-])c1 : yes
O=C(Nc1ccc(F)cc1)c1ccc(Cl)[n+]([O-])c1 : no
CCS(=O)(=O)c1ccc(C(=O)Nc2ccc(F)cc2)c[n+]1[O-] : yes
O=C(Nc1ccc(F)cc1)c1ccc(S(=O)(=O)C2CCCC2)[n+]([O-])c1 : no

Proceed to the following item.
Item `CS(=O)(=O)c1ccc(C(=O)Nc2ccc(F)cc2)c[n+]1[O-]` with inhibition of 30% or above?
yes

----------
Target: C-X-C chemokine receptor type 1 (Homo sapiens)
Sequence (whole entry): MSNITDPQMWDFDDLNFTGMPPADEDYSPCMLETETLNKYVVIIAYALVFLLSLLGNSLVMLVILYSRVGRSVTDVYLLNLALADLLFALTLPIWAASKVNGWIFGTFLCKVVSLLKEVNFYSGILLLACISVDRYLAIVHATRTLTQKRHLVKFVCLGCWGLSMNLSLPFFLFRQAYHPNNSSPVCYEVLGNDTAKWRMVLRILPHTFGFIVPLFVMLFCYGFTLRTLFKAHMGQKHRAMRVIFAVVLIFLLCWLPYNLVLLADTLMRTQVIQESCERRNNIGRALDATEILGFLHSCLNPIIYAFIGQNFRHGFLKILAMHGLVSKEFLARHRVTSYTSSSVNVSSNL
Experiment: Displacement of [125I]IL-8 from CHO cell membrane expressing human CXCR1 receptor at a concentration of 20 uM
Format: cell membranes
Can you tell me inhibition for the items I'm about to list?
Give bare numbers, in %.

Would you please look over these solved cases?
O=C(Nc1ccc(F)cc1)c1ccc(S(=O)(=O)C2CCCC2)[n+]([O-])c1 : 8
CCS(=O)(=O)c1ccc(C(=O)Nc2ccc(F)cc2)c[n+]1[O-] : 8
O=C(Nc1ccc(F)cc1)c1ccc(Cl)[n+]([O-])c1 : 68
CS(=O)(=O)c1ccc(C(=O)Nc2ccc(F)cc2)c[n+]1[O-] : 73

Read the next record carefully.
Find the recorded inhibition belonging to `O=C(Nc1ccc(F)cc1)c1ccc(S(=O)(=O)Cc2ccccc2)[n+]([O-])c1` and report it.
9

----------
molecular target: C-X-C chemokine receptor type 2 (Homo sapiens) (UniProt P25025); test: Displacement of [125I]IL-8 from CHO cell membrane expressing human CXCR2 receptor at a concentration of 20 uM; type: cell membranes
Can you tell me inhibition for the items I'm about to list?
Hi, when you answer, please include the unit after the number. Thanks!

Would you please look over these solved cases?
O=C(Nc1ccc(F)cc1)c1ccc(Cl)[n+]([O-])c1 : 85%
O=C(Nc1ccc(F)cc1)c1ccc(S(=O)(=O)C2CCCC2)[n+]([O-])c1 : 60%
O=C(Nc1ccc(F)cc1)c1ccc(S(=O)(=O)Cc2ccccc2)[n+]([O-])c1 : 77%
CCS(=O)(=O)c1ccc(C(=O)Nc2ccc(F)cc2)c[n+]1[O-] : 97%

Find the recorded inhibition belonging to `CS(=O)(=O)c1ccc(C(=O)Nc2ccc(F)cc2)c[n+]1[O-]` and report it.
97%

----------
Target: C-X-C chemokine receptor type 2 (Homo sapiens, UniProt P25025)
Sequence (P25025 whole entry): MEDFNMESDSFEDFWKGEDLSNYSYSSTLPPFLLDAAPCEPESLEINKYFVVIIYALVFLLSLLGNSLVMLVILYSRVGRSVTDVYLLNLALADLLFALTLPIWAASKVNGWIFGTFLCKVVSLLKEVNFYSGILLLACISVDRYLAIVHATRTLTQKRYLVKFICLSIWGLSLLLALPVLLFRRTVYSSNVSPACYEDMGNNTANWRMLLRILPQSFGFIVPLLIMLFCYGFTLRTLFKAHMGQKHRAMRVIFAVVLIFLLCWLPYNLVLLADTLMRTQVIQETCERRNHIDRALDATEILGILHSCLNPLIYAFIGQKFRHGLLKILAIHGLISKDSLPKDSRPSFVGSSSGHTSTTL
Experiment: Evaluated using an SPA assay with recombinant human [125I]IL-8 and membranes prepared from Sf9 cells expressing human CXCR2
quantity-measured: pIC50
One number for each entry, as −log10 of the molar value.

CCS(=O)(=O)c1ccc(C(=O)Nc2ccc(F)cc2)c[n+]1[O-] : 6.89
O=C(O)c1cccc(S(=O)(=O)c2ccc(C(=O)Nc3ccc(F)cc3)c[n+]2[O-])c1 : 7.49
O=C(Nc1ccc(F)cc1)c1ccc(S(=O)(=O)C2CCCC2)[n+]([O-])c1 : 6.34

Count: 2. Required value per item: pIC50.
1. O=C(Nc1ccc(F)cc1)c1ccc(Cl)[n+]([O-])c1
2. O=C(Nc1ccc(F)cc1)c1ccc(S(=O)(=O)Cc2ccccc2)[n+]([O-])c1

[6.00, 6.55]

Count: 3. Required value per item: pIC50.
1. CC(C)S(=O)(=O)c1ccc(C(=O)Nc2ccc(F)cc2)c[n+]1[O-]
2. O=C(Nc1ccc(F)cc1)c1ccc(S(=O)(=O)c2ccccc2)[n+]([O-])c1
3. CS(=O)(=O)c1ccc(C(=O)Nc2ccc(F)cc2)c[n+]1[O-]

[6.40, 7.05, 6.89]
